- System: CCRIS mutagenicity, Ames/micronucleus/aberration tests
- PROTOCOL_NOTES: CCRIS mutagenicity studies
- TEST_PARAMETERS: Test System: AMES SALMONELLA TYPHIMURIUM; Strain/Indicator: TA97; Metabolic Activation: RAT, LIVER, S-9, AROCLOR 1254 (30%); Method: PREINCUBATION
Active and inactive are the calls of the source. How the calls were made is not given here.
MEASUREMENT_LABEL: mutagenic call

compound=Cc1cc(-c2cc(C)c(N)c(C)c2)cc(C)c1N value_observed="inactive; negative"
compound=[CH3][Hg+] value_observed="inactive; negative"
compound="CCCCC(CC)COCCCN (stereo not drawn)" value_observed="inactive; negative"

* * *

- System: CCRIS mutagenicity, Ames/micronucleus/aberration tests
- PROTOCOL_NOTES: CCRIS mutagenicity studies
- TEST_PARAMETERS: Test System: AMES SALMONELLA TYPHIMURIUM; Strain/Indicator: TA100; Metabolic Activation: NONE; Method: STANDARD PLATE
Activity calls are given as the source filed them. How the calls were made is not given here.
MEASUREMENT_LABEL: mutagenic call

compound=O=C1CC(=C(Cl)Cl)C(=O)N1 value_observed="active; positive"
compound=Clc1cccnc1Cl value_observed="inactive; negative"
compound=C=C(Br)C=O value_observed="active; positive"
compound=C=Cc1ccc(O)c(OC)c1 value_observed="inactive; negative"
compound=Nc1cc(-c2ccncc2)c[nH]c1=O value_observed="inactive; negative"
compound=O=Cc1ccc(C(=O)ON(OCc2ccccc2)C(=O)c2ccccc2)cc1 value_observed="active; positive"
compound=O=[N+]([O-])C1=Cc2cccc3c2c1cc1ccc2ccccc2c13 value_observed="inactive; negative"
compound="CCOP(=O)(OCC)N1[C@@H]2c3ccccc3-c3ccccc3[C@@H]21 (stereo partly drawn)" value_observed="active; positive"
compound=O=CN(O)c1ccc(Oc2ccccc2)cc1 value_observed="inactive; negative"
compound=c1ccc2nc3ccccc3cc2c1 value_observed="inactive; negative"
compound=O=C(/C=C/c1ccccc1)c1ccc(Br)cc1 value_observed="inactive; negative"
compound=CCCOc1cc(N=Nc2ccc(N(CCO)CCO)cc2)ccc1N=Nc1c(S(=O)(=O)O)cc2ccc(N)cc2c1O value_observed="inactive; negative"
compound=ClC(Cl)=C(c1ccc(Cl)cc1)c1ccc(Cl)cc1 value_observed="inactive; negative"

* * *

- Test system: CCRIS mutagenicity, Ames/micronucleus/aberration tests
- PROTOCOL_NOTES: CCRIS mutagenicity studies
- TEST_PARAMETERS: Test System: AMES SALMONELLA TYPHIMURIUM; Strain/Indicator: TA1538; Metabolic Activation: NONE; Method: STANDARD PLATE
Activity calls are given as the source filed them. No rule for the calls is given here.
MEASUREMENT_LABEL: mutagenic call

compound=O=[N+]([O-])C1=Cc2ccc3ccc4cccc5cc1c2c3c45 value_observed="active; positive"
compound=O=[N+]([O-])O value_observed="inactive; negative"
compound="O=c1c(O)c(C2=CC(O)(CCO)C(O)(CCO)C=C2)oc2c1C(O)=CC(O)(CCO)C2 (stereo not given)" value_observed="inactive; negative"
compound=C[Si]1(C)O[Si](C)(C)O[Si](C)(C)O[Si](C)(C)O[Si](C)(C)O1 value_observed="inactive; negative"
compound=C=C(C)C(=O)OCCCCOC(=O)C(=C)C value_observed="inactive; negative"
compound=CCN(CC)c1ccc(N=Nc2ccc(N=Nc3c(S(=O)(=O)O)cc4ccc(N)cc4c3O)c(OCCO)c2)cc1 value_observed="inactive; negative"
compound=CCO[Si](C)(C)OCC value_observed="inactive; negative"
compound=CCN(CC)c1cc(NC(C)=O)c(N=Nc2c(Br)cc([N+](=O)[O-])cc2[N+](=O)[O-])cc1OC value_observed="active; positive"
compound=O=C1c2ccccc2C(=O)c2c(O)ccc(O)c21 value_observed="inactive; negative"
compound=NNc1nnc(NN)c2ccccc12 value_observed="active; positive"
compound=O=c1[nH]c(=O)n([C@H]2C[C@H](O)[C@@H](CO)O2)cc1CCCl value_observed="inactive; negative"
compound=CCN(CCCl)CCCNc1c2ccccc2nc2c1ccc1ccccc12 value_observed="active; positive"
compound=NCCN1CCNCC1 value_observed="inactive; negative"
compound=CCC/C=N/O value_observed="inactive; negative"
compound=Nc1ccc2c([nH]c3ccccc32)c1[N+](=O)[O-] value_observed="active; positive"
compound=CN(C)c1ccc(N=Nc2cccnc2)cc1 value_observed="inactive; negative"
compound=CCCCCCCCCCCCCCCCCCO value_observed="inactive; negative"
compound=CCCCOc1ccc2nc3cc(Cl)ccc3c(NCCCNCCCl)c2n1 value_observed="active; positive"
compound="O=C(c1ccccc1)C(O)c1ccccc1 (stereo not given)" value_observed="inactive; negative"
compound=Nc1cccc2c1C(=O)c1cccc(N)c1C2=O value_observed="inactive; negative"
compound="O=C1CC(c2ccc(O)cc2)Oc2cc(O)cc(O)c21 (stereo not given)" value_observed="inactive; negative"
compound=N=c1ccc2c(-c3ccccc3C(=O)O)c3ccc(N)cc3oc-2c1 value_observed="inactive; negative"
compound=CCOCCc1c(-c2ccccc2)nc(N)n2ncnc12 value_observed="inactive; negative"
compound=CCCCCCCCCCCCCCCC(=O)OC[C@H](O)[C@H]1OC(=O)C(O)=C1O value_observed="inactive; negative"
compound=O=[N+]([O-])c1ccc(Nc2ccc(N=C=S)cc2)cc1 value_observed="inactive; negative"

From: PubChem BioAssay AID1259407
